Data origin, for the record: PubChem BioAssay

Assay Remarks: inhibitors of mitochondrial cytochrome c release, biochemical, purified mitochondria (AID 1603);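 further: mouse liver mitochondria challenged with calcium chloride; signal normalized to the plate average as 100%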
Conditions: stronger effect = lower value
Labelling field: enter yes (1) if recorded cytochrome c release ratio is less than 0.9. Enter no (0) if it equals or exceeds that cut-off.

- Compound: "O=C1NS(=O)(=O)c2ccccc21"
  Category Label: "no (0)"
- Compound: "NC1=NCCN1CC(=O)O"
  Category Label: "no (0)"
- Compound: "c1coc(CNc2ncnc3nc[nH]c23)c1"
  Category Label: "no (0)"

Report whether reported cytochrome c release ratio is lower than 0.9 (strictly) for CC(=O)N[C@@H]1[C@@H](O)[C@H](O)[C@@H](CO)O[C@H]1O
yes (1)

# strict comparison: is reported cytochrome c release ratio < 0.9? input = CSCCC(N)C(=O)NC(CC(C)C)C(=O)NC(Cc1ccccc1)C(=O)O (configuration not stated)
yes (1)

is_below(cytochrome c release ratio, 0.9) for CN(C)c1nc(N(C)C)nc(N(C)C)n1 ?
no (0)

* * *

Assay Remarks: sensitizers of A549 cells to miR-34 induction, primary screen, imaging, A549 dox-inducible miR-34, nuclei and caspase counts (AID 1347080)
Conditions: A549 miR-34 inducible, Hoechst nuclei count, 48 h; measured here: total cells without miR-34 induction
Grouping key: cell count. Bins: b0 (below 9000), b1 (9000 to below 10000), b2 (10000 or more)

Previously resolved entries follow.
- Compound: "CO[C@H]1/C=C/O[C@@]2(C)Oc3c(C)c(O)c4c(O)c(c5c(nc6cc(C)ccn65)c4c3C2=O)NC(=O)/C(C)=C\\C=C\\[C@H](C)[C@H](O)[C@@H](C)C(O)[C@@H](C)[C@H](OC(C)=O)[C@@H]1C (stereo partly drawn)"
  Category Label: "b2"
- Compound: "CCOC(=O)c1ccc(O)cc1"
  Category Label: "b2"
- Compound: "O=C(O)CN(CCN(CC(=O)O)CC(=O)O)CC(=O)O"
  Category Label: "b2"

Which bin, given its cell count, does NCCCC(N)(C(=O)O)C(F)F (stereo not drawn) occupy?
b0

Into which category would you place Cc1ccc(O)cc1 ?
b2

GET /class?item= CCCCCCCCCCCCCCC[C@H](O)[C@@H](N)CO
b0

Which band does CCOc1ccccc1OCCN[C@H](C)Cc1ccc(OC)c(S(N)(=O)=O)c1 fall in?
b2

* * *

Assay Remarks: ICB984 medulloblastoma cell growth inhibition, synergistic combos for chromothripsis tumors, cisplatin or BGB combos (AID 1671451);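 further: cells exposed for 96 hours before readout; 0% = vehicle DMSO and 100% = killing by high DMSO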
Conditions: ICB984 medulloblastoma cells, drug combinations, BGB IC40 combo, at 0.005 µM, stronger effect = higher value
inhibition below -20% gives f; inhibition at or above it gives t.

Example entries and their recorded answers appear below.
- Compound: "C[C@@H](CN1CC(=O)NC(=O)C1)N1CC(=O)NC(=O)C1"
  Category Label: "f"
- Compound: "COC1C(OC(N)=O)C(O)C(Oc2ccc3c(O)c(NC(=O)c4ccc(O)c(CC=C(C)C)c4)c(=O)oc3c2C)OC1(C)C (configuration not stated)"
  Category Label: "f"
- Compound: "CC1(C(=O)O)CCC2(C)CCC3(C)C(=CC(=O)C4C5(C)CCC(OC(=O)CCC(=O)O)C(C)(C)C5CCC43C)C2C1 (configuration not stated)"
  Category Label: "f"

Quick check, inhibition >= -20%? N=C(N=C(N)N)N1CCOCC1
t

Does inhibition meet or surpass -20% for CN1CCN(c2c(F)cc3c(=O)c(C(=O)O)cn4c3c2OCN4C)CC1 ?
t

For this compound, is measured inhibition -20% or higher? CN1C[C@@H]2C[C@H]1CN2c1cc2c(cc1F)c(=O)c(C(=O)O)cn2C1CC1
f

Could you please find out whether COc1c2ccoc2cc2oc(=O)ccc12 has inhibition that meets -20% or exceeds it?
t

Check the entry CN1CCN(c2c(F)cc3c(=O)c(C(=O)O)cn(CCF)c3c2F)CC1 : does inhibition equal or exceed -20%?
t

Decide: inhibition of N=c1ccn2c(n1)O[C@H]1[C@H](O)[C@@H](CO)O[C@H]12 >= -20%?
f

inhibition >= -20% for O=c1cc[nH]c(=O)[nH]1 ?
f

Reported inhibition at or above -20%? O=c1c(O)c(-c2ccc(O)c(O)c2)oc2cc(O)ccc12
t

* * *

Assay Remarks: growth inhibition of GSK3B-pretreated HCT116 cells – cell-based, CellTiter-Glo, 0.2 to 20 µM (AID 1117336)
Conditions: HCT116 viability after GSK3B inhibitor, at 20 µM, stronger effect = higher value
Observed Property: viability decrease (%)
Just the number please, in %, no unit attached.

As a guide, the following entries are already answered.
- Molecule: "Nc1ccn(C2CO[C@H](CO)O2)c(=O)n1 (some centres not stated)"
  Data Value: -8.3
- Molecule: "NCCNCCNCCNCCN"
  Data Value: -0.2
- Molecule: "CC(=O)[C@H]1CC[C@H]2[C@@H]3C=CC4=CC(=O)CC[C@@]4(C)[C@@H]3CC[C@]12C"
  Data Value: 6.3
- Molecule: "O=C(O)c1c(Cl)c(Cl)c(Cl)c(Cl)c1-c1c2cc(I)c(=O)c(I)c-2oc2c(I)c(O)c(I)cc12"
  Data Value: 96.7
- Molecule: "CC(C)COC(=O)c1ccc(N)cc1"
  Data Value: -5.95

Which viability decrease value is on record for CN1CCC[C@@H]1Cc1c[nH]c2ccc(CCS(=O)(=O)c3ccccc3)cc12 ?
30.6

I have this molecule here, O=C1c2ccccc2S(=O)(=O)N1CCCCN1CCN(c2ncccn2)CC1 , and I need its recorded viability decrease.
-7

Dear colleague, I am looking for the recorded viability decrease of the following molecule: CN1CC[C@H](c2c(O)cc(O)c3c(=O)cc(-c4ccccc4Cl)oc23)[C@H](O)C1
73.7

Item under review: CC(O)CN(CCN(CC(C)O)CC(C)O)CC(C)O (configuration not stated) . Reported viability decrease?
-38.9

For CC#C[C@]1(O)CC[C@H]2[C@@H]3CCC4=CC(=O)CCC4=C3[C@@H](c3ccc(N(C)C)cc3)C[C@@]21C , what is its reported viability decrease?
94.5

* * *

Measured nuclear beta-catenin stimulation of individual entries
Assay Remarks: stimulators of nuclear beta-catenin in C2C12, primary screen, imaging, WNT3A-conditioned medium, mouse C2C12, NPC library (AID 1117326); further: reference of the scale not given here
Conditions: stimulation, at 2 µM, stronger effect = higher value
Only the number, expressed in %, is required.

Some molecules with known nuclear beta-catenin stimulation results, for comparison:
- Molecule: "CCN(CC)CCOc1ccc(Cc2ccccc2)cc1"
  nuclear beta-catenin stimulation, %: 14.6
- Molecule: "CCCC(=O)OCOC(=O)C1=C(C)NC(C)=C(C(=O)OC)C1c1cccc(Cl)c1Cl (stereo not given)"
  nuclear beta-catenin stimulation, %: 12.3
- Molecule: "C[C@]12CC[C@@H]3c4ccc(O)cc4CC[C@H]3[C@@H]1CC[C@@H]2OC(=O)CCC1CCCC1"
  nuclear beta-catenin stimulation, %: 2.5
- Molecule: "Clc1ccc(Nc2nnc(Cc3ccncc3)c3ccccc23)cc1"
  nuclear beta-catenin stimulation, %: -0.4
- Molecule: "CC(C)OC(=O)C(C(=O)OC(C)C)=C1SC=CS1"
  nuclear beta-catenin stimulation, %: 0.1

# get_value(readout='nuclear beta-catenin stimulation', item= CC[N+](C)(CC)CCOC(=O)C1c2ccccc2Oc2ccccc21 )
0.8

nuclear beta-catenin stimulation for CC1(C)[C@@H](OC(=O)CCC(=O)O)CC[C@]2(C)[C@H]3C(=O)C=C4[C@@H]5C[C@@](C)(C(=O)O)CC[C@]5(C)CC[C@@]4(C)[C@]3(C)CC[C@@H]12 ?
1.3

Data request, read-out nuclear beta-catenin stimulation, for CC[N+](CC)(CC)CCOc1ccc(/C=C/c2ccccc2)cc1
-0.8

# nuclear beta-catenin stimulation lookup, item CC(O)(P(=O)(O)O)P(=O)(O)O
1.7

* * *

Assay Remarks: viability rescue of complex I mutant cybrids, primary screen, cell-based, galactose medium, ATP luminescence (AID 1645843);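 further: positive z means more ATP and so rescue of galactose-driven cybrid death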
Conditions: complex I mutant cybrid cells, 72 h, stronger effect = higher value
Parameter: z-score. Scope: all listed entries.
Please state the value as a number alone, without comment.

- Molecule: "O=P(O)(O)OC(CO)CO"
  z-score: 0.385
- Molecule: "CCCn1cnc2c1c(=O)n(CCCCC(C)=O)c(=O)n2C"
  z-score: 0.675
- Molecule: "CCC(=O)c1ccc2c(c1)N(CCCN(C)C)c1ccccc1S2"
  z-score: -1.19
- Molecule: "C=C1C[C@H]2[C@@H]3C=C(C)C4=CC(=O)CC[C@]4(C)[C@H]3CC[C@]2(C)[C@@]1(OC(C)=O)C(C)=O"
  z-score: -0.29
- Molecule: "CCN(CC)C(=O)/C(C#N)=C/c1cc(O)c(O)c([N+](=O)[O-])c1"
  z-score: 0.125

Form field: reported z-score of CC[C@H]1OC(=O)[C@H](C)[C@@H](O[C@H]2C[C@@](C)(OC)[C@@H](O)[C@H](C)O2)[C@H](C)[C@@H](O[C@@H]2O[C@H](C)C[C@H](N(C)C)[C@H]2O)[C@](C)(OC)C[C@@H](C)C(=O)[C@H](C)[C@@H](O)[C@]1(C)O
-0.33

Quick check: z-score of O=C(O)CN(CCOCCOCCN(CC(=O)O)CC(=O)O)CC(=O)O ?
0.34

Tell me the measured z-score of COC(=O)C1=C(C)NC(C)=C(C(=O)OCCCN2CCC(c3ccccc3)(c3ccccc3)CC2)C1c1cccc([N+](=O)[O-])c1 (stereo not drawn) , please.
-2.25
